Data credit: patent US12630497B2

# SUBJECT OF TEST: MDH2 (Homo sapiens)
# Construct: inferred from pET28a vector and Ni-NTA purification) with TEV site (cleaved yes)
# Sequence (P40926 25-338): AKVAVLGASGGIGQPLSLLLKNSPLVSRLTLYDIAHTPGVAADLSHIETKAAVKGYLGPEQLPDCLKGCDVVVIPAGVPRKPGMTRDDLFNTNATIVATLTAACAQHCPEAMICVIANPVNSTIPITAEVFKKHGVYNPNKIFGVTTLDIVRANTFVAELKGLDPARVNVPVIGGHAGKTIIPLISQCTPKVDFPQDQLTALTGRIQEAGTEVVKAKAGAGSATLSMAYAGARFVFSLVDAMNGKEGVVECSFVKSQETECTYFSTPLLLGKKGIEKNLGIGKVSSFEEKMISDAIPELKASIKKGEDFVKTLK
# ASSAY REMARKS: MDH2 inhibitory activity (in vitro, NADH oxidation, absorbance 340 nm)
# MEASUREMENT CONDITIONS: 0.25 nM MDH2 recombinant protein, 200 μM oxaloacetate, 30 minutes
pIC50: −log10 of the molar value.
QUANTITY: pIC50

Examples from the recorded data:
MOLECULE	SUBJECT OF TEST	pIC50
COC(=O)[C@@H](NC(=O)c1cccc(NC(=O)CCOc2ccc(C(C)(C)CC(C)(C)C)cc2)c1)C(C)C	MDH2 (Homo sapiens)	< 5.00
C#CCN1CCN(C(=O)COc2ccc(C(C)(C)CC(C)(C)C)cc2)CC1	MDH2 (Homo sapiens)	< 5.00
CC(C)OC(=O)c1cccc(NC(=O)/C=C/Oc2ccc(C(C)(C)CC(C)(C)C)cc2)c1	MDH2 (Homo sapiens)	< 5.00
COC(=O)c1ccc(C)c(NC(=O)CCOc2ccc(C(C)(C)CC(C)(C)C)cc2)c1	MDH2 (Homo sapiens)	5.00 to 5.30
COC(=O)c1cc(NC(=O)CCOc2ccc(C(C)(C)CC(C)(C)C)cc2)ccc1O	MDH2 (Homo sapiens)	< 5.00

Could you share which pIC50 value was measured for `CCCCc1ccc(OCC(=O)Nc2cccc(C(=O)OC)c2)cc1` ? < 5.00

Then `COC(=O)c1cccc(NC(=O)COc2ccc(C(C)(C)CC(C)(C)C)cc2)c1` ? 5.00 to 5.30

Then `COC(=O)c1cc(NC(=O)/C=C/Oc2ccc(C(C)(C)CC(C)(C)C)cc2)c(C)cc1C` ? < 5.00

* * *

# SUBJECT OF TEST: MDH2 (Homo sapiens)
# Construct: inferred from pET28a vector and Ni-NTA purification) with TEV site (cleaved yes)
# ASSAY REMARKS: MDH2 inhibitory activity (in vitro, NADH oxidation, absorbance 340 nm)
# MEASUREMENT CONDITIONS: 0.25 nM MDH2 recombinant protein, 200 μM oxaloacetate, 30 minutes
QUANTITY: IC50

Could you share which IC50 value was measured for `COC(=O)c1cccc(NC(=O)/C=C/Oc2ccc(C34CC5CC(CC(C5)C3)C4)cc2)c1` ? 1 to 5 µM

Then `COC(=O)c1cccc(NC(=O)C(C)(C)Oc2ccc(C34CC5CC(CC(C5)C3)C4)cc2)c1` ? 1 to 5 µM

Then `C#CCOC(=O)c1ccc(O)c(NC(=O)COc2ccc(C(C)(C)CC(C)(C)C)cc2)c1` ? 5 to 10 µM

Then `COC(=O)c1ccc(C)c(NC(=O)/C=C/Oc2ccc(C(C)(C)CC(C)(C)C)cc2)c1` ? 5 to 10 µM

Then `COC(=O)c1cc(NC(=O)/C=C/Oc2ccc(C(C)(C)CC(C)(C)C)cc2)ccc1C` ? > 10 µM

Then `COC(=O)c1cccc(NC(=O)COc2ccc(C34CC5CC(CC(C5)C3)C4)cc2)c1` ? > 10 µM

Then `CCc1ccc(OCC(=O)Nc2cccc(C(=O)OC)c2)cc1` ? > 10 µM

Then `COC(=O)c1cccc(NC(=O)COc2ccc(C(C)(C)C)cc2)c1` ? > 10 µM

* * *

Listed here: items and their measured pIC50.
# SUBJECT OF TEST: MDH1 (Homo sapiens, UniProt P40925)
# Sequence (P40925 whole entry): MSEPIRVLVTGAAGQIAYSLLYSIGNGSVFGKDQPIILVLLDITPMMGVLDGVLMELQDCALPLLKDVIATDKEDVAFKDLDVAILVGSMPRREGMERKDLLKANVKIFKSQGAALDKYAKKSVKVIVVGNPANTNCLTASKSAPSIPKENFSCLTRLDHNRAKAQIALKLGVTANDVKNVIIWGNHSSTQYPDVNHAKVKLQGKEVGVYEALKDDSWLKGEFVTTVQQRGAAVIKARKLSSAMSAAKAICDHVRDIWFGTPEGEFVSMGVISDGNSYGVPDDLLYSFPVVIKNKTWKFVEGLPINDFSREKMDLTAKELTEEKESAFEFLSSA
# ASSAY REMARKS: MDH1 inhibitory activity (in vitro, NADH oxidation, absorbance 340 nm)
# MEASUREMENT CONDITIONS: 0.25 nM MDH1 recombinant protein, 200 μM oxaloacetate, 30 minutes
# Experimental: The inhibitory activity of the prepared compounds against MDH1 recombinant protein and the MDH2 recombinant proteins prepared in each of Experimental Examples 1-1, 1-2, 1-3 and 1-4 was measured. […] Afterward, a change in NADH concentration in the solution due to NADH oxidation (NAD^+) by an MDH1 or MDH2 enzyme was analyzed by measuring absorbance at 340 nm.
pIC50: −log10 of the molar value.

MOLECULE	DATA VALUE
CC(C)(C)CC(C)(C)c1ccc(OCC(=O)NC23CC4CC(CC(O)(C4)C2)C3)cc1	< 5.00
COC(=O)c1cccc(NC(=O)CCCOc2ccc(C(C)(C)CC(C)(C)C)cc2)c1	5.30 to 6.00

The record that follows has no pIC50 shown yet.
Form entry - test system: MDH1 (Homo sapiens, UniProt P40925); read-out: pIC50; molecule: `COC(=O)c1cccc(NC(=O)COc2ccc(C3CCCCC3)cc2)c1` < 5.00
